- Run description: mitochondrial membrane potential change in A549 cells, profiling panel, cell-based, JC-1 fluorescence, basal, 24 h, 100 nL (AID 1138);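 note: A549 lung adenocarcinoma cells under basal conditions with no added stimulus; test concentration not given here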
- Study conditions: higher = more signal
Quantity name: z-score

Below are worked cases with known answers.
Compound structure: CO[C@H]1COC(=O)[C@H](CCSC)NC(=O)CC=C[C@@H](C)[C@H](OC)COC(=O)[C@@H](OCc2ccccc2)C=C[C@@H]1C
Quantity name: z-score
Result: -1.19
//
Compound structure: CON(C)C(=O)c1nnc2c(n1)[nH]c1ccccc12
Quantity name: z-score
Result: -0.448

Need z-score of COc1ccc(O[C@H]2C=C[C@@H](c3ccccc3)O[C@@H]2COC(=O)NCc2cccc3ccccc23)cc1 , thanks.
1.07

---

- Run description: HepG2 cell viability effects, profiling panel, calcein-AM fluorescence, 48 h, basal (AID 1164); note: test concentration not given here
- Study conditions: higher = more signal
Output Criterion met for z-score not less than -0.3; output Criterion not met otherwise.

Check out these entries, answers already filled in.
Compound: CC(C)(C)N1C(=O)[C@H]2[C@H]3[C@H](O)[C@H](O)CC(=NNC(=O)OCc4ccccc4)[C@@H]3CC[C@H]2C1=O
Class label: Criterion met
//
Compound: COC(=O)[C@H](C)NC(=O)CCC1CC(OC(=O)NCc2cccc3ccccc23)CC2(CCCC(COC(=O)NCCCN3CCCC3=O)O2)O1 (some centres not stated)
Class label: Criterion met
//
Compound: CO[C@@H]1COC(=O)CC=C[C@H](C)[C@H](OC)COC(=O)[C@@H]2CCCN2C(=O)CC=C[C@H]1C
Class label: Criterion met
//
Compound: COc1ccc(COC(=O)NN=C2C[C@@H](O)[C@@H](O)[C@@H]3[C@@H]4C(=O)N(C(C)(C)C)C(=O)[C@@H]4CC[C@@H]23)cc1
Class label: Criterion not met
//
Compound: COC(=O)[C@@H]1CC[C@H](C)[C@@H](c2ccc(Br)cc2)N1C(=O)C(F)(F)F
Class label: Criterion not met
//
Compound: COc1ccc(OC[C@@H](CO)OC)cc1
Class label: Criterion met
//
Compound: CC(C)(C)N1C(=O)[C@H]2[C@H]3[C@H](O)[C@H](O)CC(=NNC(=O)OCc4ccccc4)[C@H]3CC[C@H]2C1=O
Class label: Criterion not met
//
Compound: O=C1C=C[C@@H](O)[C@@H]2[C@@H]3C(=O)N(Cc4ccccc4)C(=O)[C@@H]3CC[C@@H]12
Class label: Criterion met
//
Compound: CCOC(=O)[C@H](Cc1ccccc1)NC(=O)CCC1CC(OC(=O)NCc2ccc3c(c2)OCO3)CC2(CCCC(COC(=O)NCCOc3ccccc3)O2)O1 (some centres not stated)
Class label: Criterion met
//
Compound: C[C@@H]1CC[C@H]2C(=O)O[C@@H](CN=[N+]=[N-])CN2[C@H]1c1ccc(Br)cc1
Class label: Criterion not met

Entry CCOC(=O)CCN1C(=O)[C@H]2[C@H]3[C@H](O)[C@H](O)CC(=NNC(=O)OCc4ccccc4)[C@H]3CC[C@H]2C1=O : is its z-score no less than -0.3?
Criterion met

Also, CCc1cc2c(nc1CC)CCN(CCC(C)=NOC(C)CN1CCCCc3nc(C)c(C)cc31)C2 (configuration not stated) please.
Criterion met

---

- Run description: PSAC antagonists in infected red cells, primary screen, cell-based, P. falciparum Indochina, OD700, 2 h (AID 1155);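 note: lysis reports solute entry through the parasite surface anion channel PSAC; channel blockers reduce lysis of infected cells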
- Study conditions: P. falciparum Indochina infected erythrocytes, osmotic lysis OD700; higher = more signal, called active from +8 up or from −8 down
Output criterion met for z-score not less than 0.006; output criterion not met otherwise.

Compound: COC(=O)[C@H](C)NC(=O)CCC1CC(OC(=O)NCc2ccc3c(c2)OCO3)CC2(CCCC(COC(=O)NCc3ccccc3)O2)O1 (stereo partly specified)
Class label: criterion not met
//
Compound: COC(=O)C(C(=O)OC)C1CCCC(=O)C1 (stereo unspecified)
Class label: criterion not met
//
Compound: CC(C)CON=C1C[C@@H](O)[C@@H](O)[C@@H]2[C@@H]3C(=O)N(c4ccc(F)cc4F)C(=O)[C@@H]3CC[C@@H]12
Class label: criterion not met
//
Compound: CCOC(=O)CCN1C(=O)[C@H]2[C@@H]3C(=CC[C@H]2C1=O)C(=O)[C@H]1O[C@H]1[C@H]3O
Class label: criterion met
//
Compound: COC(=O)[C@@H]1CC[C@H](C)[C@@H](c2ccc(C)cc2)N1C(=O)c1ccc(C=NOC[C@@H](O)[C@H]2O[C@@H]3OC(C)(C)O[C@@H]3[C@H]2O)cc1
Class label: criterion met

Read the next record carefully.
Entry CC1(C)O[C@H]2O[C@H]([C@H](O)CON=C3[C@H]4CCn5c(=O)n(-c6ccccc6)c(=O)n5[C@H]4[C@H](O)[C@@H]4O[C@H]34)[C@H](O)[C@H]2O1 : is its z-score no less than 0.006?
criterion met
